- System: Ca^+2 -calmodulin dependent myosin light chain phosphorylation
- PROTOCOL_NOTES: inhibition of Ca^+2-calmodulin dependent myosin light chain phosphorylation (MLCP)
- Format: biochemical
- CONDITIONS_USED: 25 μM
MEASURED_ATTRIBUTE: inhibition of myosin light chain phosphorylation (Antag. of MLCP) (%)
Write the value in % as a bare number.

Completed entries (count: 5):
INSERT INTO results (compound, assay_system, numeric_readout) VALUES
  ('COC(COC(=O)C1=C(C)NC2=C(C(=O)CNC2)C1c1c(F)c(F)c(F)c(F)c1F)c1ccccc1 (centres unmarked)', 'Ca^+2 -calmodulin dependent myosin light chain phosphorylation', 21),
  ('CC1=C(C(=O)OCCOc2ccccc2)C(c2c(F)ccc(Cl)c2Cl)C2=C(CNCC2=O)N1 (centres unmarked)', 'Ca^+2 -calmodulin dependent myosin light chain phosphorylation', 8),
  ('CC1=C(C(=O)OCCOc2cccc(Cl)c2Cl)C(c2c(F)c(F)c(F)c(F)c2F)C2=C(CNCC2=O)N1 (centres unmarked)', 'Ca^+2 -calmodulin dependent myosin light chain phosphorylation', 54),
  ('CC1=C(C(=O)OCCc2ccccc2)C(c2c(F)c(F)c(F)c(F)c2F)C2=C(CNCC2=O)N1 (centres unmarked)', 'Ca^+2 -calmodulin dependent myosin light chain phosphorylation', 35),
  ('CC1=C(C(=O)OCC2COc3ccccc3O2)C(c2c(F)c(F)c(F)c(F)c2F)C2=C(CNCC2=O)N1 (centres unmarked)', 'Ca^+2 -calmodulin dependent myosin light chain phosphorylation', 59);

Could you tell me which inhibition of myosin light chain phosphorylation (Antag. of MLCP) is on file for COC(COC(=O)C1=C(C)NC2=C(C(=O)CNC2)C1c1cccc(Cl)c1Cl)c1ccccc1 (centres unmarked) ? 38

Now try CC1=C(C(=O)OCCOc2ccccc2)C(c2c(F)c(F)c(F)c(F)c2F)C2=C(CNCC2=O)N1 (racemic) . 24

Now try CC1=C(C(=O)OC(C)COc2ccccc2)C(c2c(F)c(F)c(F)c(F)c2F)C2=C(CNCC2=O)N1 (centres unmarked) . 58

###

- Tested on: spontaneously hypertensive rats
- PROTOCOL_NOTES: decrease in systolic blood pressure of spontaneously hypertensive rats
- Type: in vivo, rat
- CONDITIONS_USED: 50 mg/kg oral, 1.5 hours
Below, each of the compounds is paired with its reported systolic blood pressure (B.P.) reduction value.
Write the value in mmHg as a bare number.

Completed entries (count: 3):
INSERT INTO results (compound, assay_system, measured_attribute, numeric_readout) VALUES
  ('COC(COC(=O)C1=C(C)NC2=C(C(=O)CNC2)C1c1cccc(Cl)c1Cl)c1ccccc1 (stereo not drawn)', 'spontaneously hypertensive rats', 'systolic blood pressure (B.P.) reduction', -53),
  ('COC(COC(=O)C1=C(C)NC2=C(C(=O)CNC2)C1c1cccc(Cl)c1)c1ccccc1 (stereo not drawn)', 'spontaneously hypertensive rats', 'systolic blood pressure (B.P.) reduction', -29),
  ('CC1=C(C(=O)OC(C)COc2ccccc2)C(c2c(F)c(F)c(F)c(F)c2F)C2=C(CNCC2=O)N1 (stereo not drawn)', 'spontaneously hypertensive rats', 'systolic blood pressure (B.P.) reduction', -35);

Could you tell me which systolic blood pressure (B.P.) reduction is on file for COC(COC(=O)C1=C(C)NC2=C(C(=O)CNC2)C1c1c(F)cccc1Cl)c1ccccc1 (stereo not drawn) ? -37

Now try CC1=C(C(=O)OCCOc2ccccc2)C(c2cccc(Cl)c2Cl)C2=C(CNCC2=O)N1.Cl (stereo not drawn) . -50

Now try CC1=C(C(=O)OCC2COc3ccccc3O2)C(c2c(F)c(F)c(F)c(F)c2F)C2=C(CNCC2=O)N1 (stereo not drawn) . -46
